Tested on: HeLa
Experiment: Cytotoxicity against Homo sapiens (human) HeLa cells assessed as cell viability after […] by MTT assay
Format: functional
Known log10(IC15) of a selection of compounds
Kindly note that the scale is log10 and the underlying IC15 is in µM.

input: Answer with the recorded log10(IC15) for the compound listed here: Cc1ccccc1N=C1C(=O)Nc2ccccc21
output: 1.09

input: Answer with the recorded log10(IC15) for the compound listed here: O=C1Nc2ccccc2/C1=N/c1nc(Cl)cs1
output: 0.51

input: Answer with the recorded log10(IC15) for the compound listed here: O=C1Nc2ccccc2/C1=N/c1nc2ccccc2[nH]1
output: 1.64

input: Answer with the recorded log10(IC15) for the compound listed here: O=C1Nc2ccccc2/C1=N/c1cccc2ccccc12
output: 1.20

input: Answer with the recorded log10(IC15) for the compound listed here: O=C1Nc2ccccc2/C1=N\c1ccc(Cl)cc1
output: 1.19

input: Answer with the recorded log10(IC15) for the compound listed here: O=C1Nc2ccccc2/C1=N/c1ccc(Cl)cn1
output: 1.33

input: Answer with the recorded log10(IC15) for the compound listed here: Cc1conc1/N=C1\C(=O)Nc2ccccc21
output: 1.70

input: Answer with the recorded log10(IC15) for the compound listed here: O=C1Nc2ccccc2/C1=N/Nc1ccc([N+](=O)[O-])cc1
output: 0.48

input: Answer with the recorded log10(IC15) for the compound listed here: Cc1nc(Cl)cc(/N=C2\C(=O)Nc3ccccc32)n1
output: 1.24
